Attribution: patent US20110237779A1

As shown below, each of these binders has a reported IC50 value.
Target or test system: human LFA-1 (human) (UniProt P20701)
Experiment summary: phage ELISA, solution competition: Fab-phage incubated with serially diluted LFA-1, unbound phage captured on LFA-1-coated wells; IC50 used as affinity estimate
Readout type: IC50 (nM)

INSERT INTO results (binder, display_unit, result) VALUES
  ('MHM24 library clone, CDR-L2 SGSALQS (Fab, V domains shown) VH: EVQLVESGGGLVQPGGSLRLSCAASGYSFTGHWMNWVRQAPGKGLEWVGMIHPSDSETRLNQKFKDRFTISADTSKNTAYLQMNSLRAEDTAVYYCARGIYFYGTTYFDYWGQGTLVTVSS VL: DIQMTQSPSSLSASVGDRVTITCRASKTISKYLAWYQQKPGKAPKLLIYSGSALQSGVPSRFSGSGSGTDFTLTISSLQPEDFATYYCQQHNEYPLTFGQGTKVEIK', 'nM', 8),
  ('MHM24 library clone, CDR-L2 SGSIFQY, VH Y100dT (Fab, part only; not given: CH1, light constant and phage P3, part only) light chain: DIQMTQSPSSLSASVGDRVTITCRASKTISKYLAWYQQKPGKAPKLLIYSGSIFQYGVPSRFSGSGSGTDFTLTISSLQPEDFATYYCQQHNEYPLTFGQGTKVEIKR heavy chain (VH-CH1 fused to phage P3), part: EVQLVESGGGLVQPGGSLRLSCAASGYSFTGHWMNWVRQAPGKGLEWVGMIHPSDSETRLNQKFKDRFTISADTSKNTAYLQMNSLRAEDTAVYYCARGIYFYGTTYFDYWGQGTLVTVSS', 'nM', 11),
  ('MHM24 library clone, CDR-L2 SGSTLES (Fab, V domains shown) VH: EVQLVESGGGLVQPGGSLRLSCAASGYSFTGHWMNWVRQAPGKGLEWVGMIHPSDSETRLNQKFKDRFTISADTSKNTAYLQMNSLRAEDTAVYYCARGIYFYGTTYFDYWGQGTLVTVSS VL: DIQMTQSPSSLSASVGDRVTITCRASKTISKYLAWYQQKPGKAPKLLIYSGSTLESGVPSRFSGSGSGTDFTLTISSLQPEDFATYYCQQHNEYPLTFGQGTKVEIK', 'nM', 9),
  ('MHM24 library clone, CDR-L2 SGSTLES, VH S55I (Fab, V domains shown) VH: EVQLVESGGGLVQPGGSLRLSCAASGYSFTGHWMNWVRQAPGKGLEWVGMIHPSDIETRLNQKFKDRFTISADTSKNTAYLQMNSLRAEDTAVYYCARGIYFYGTTYFDYWGQGTLVTVSS VL: DIQMTQSPSSLSASVGDRVTITCRASKTISKYLAWYQQKPGKAPKLLIYSGSTLESGVPSRFSGSGSGTDFTLTISSLQPEDFATYYCQQHNEYPLTFGQGTKVEIK', 'nM', 4),
  ('MHM24 library clone, CDR-L2 SGGTLHR (Fab, V domains shown) VH: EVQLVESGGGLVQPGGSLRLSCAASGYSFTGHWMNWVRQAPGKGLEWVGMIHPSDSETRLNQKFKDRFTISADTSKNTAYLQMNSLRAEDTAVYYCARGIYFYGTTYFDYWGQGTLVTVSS VL: DIQMTQSPSSLSASVGDRVTITCRASKTISKYLAWYQQKPGKAPKLLIYSGGTLHRGVPSRFSGSGSGTDFTLTISSLQPEDFATYYCQQHNEYPLTFGQGTKVEIK', 'nM', 6);
